Test system: seven bacteria (V. parahaemolyticus, V. fluvialis, V. alginolyticus, E. coli, A. hydrophila, S. aureus, S. pyogenes)
Assay: MIC summarised over the seven bacteria (GB, average MIC, fold change)
Format: cell-based
Conditions: summary of the MICs over the seven bacteria; footnote b not given
Residues, ends and D or L forms follow the SMILES beside them.
Overview of reported log10 of GB across a group of molecules:
Hi team, quick reminder: these entries are log10 of GB (µg/mL).

Name the recorded log10 of GB of the molecule listed here: CC[C@H](C)[C@H](NC(=O)[C@H](CCCCN)NC(=O)[C@H](Cc1c[nH]cn1)NC(=O)[C@H](CC(C)C)NC(=O)[C@H](CC(C)C)NC(=O)[C@H](Cc1ccccc1)NC(=O)[C@H](CC(N)=O)NC(=O)[C@@H](N)C(C)C)C(=O)N[C@@H](Cc1ccc(O)cc1)C(=O)NCC(=O)N[C@@H](CC(N)=O)C(=O)N[C@H](C(=O)N[C@@H](CCCNC(=N)N)C(=O)N[C@@H](CC(=O)O)C(=O)N[C@@H](CO)C(N)=O)[C@@H](C)CC [M3] (H-VNFLLHKIYGNIRDS-NH2)
1.15

Name the recorded log10 of GB of the molecule listed here: CC[C@H](C)[C@H](NC(=O)[C@H](Cc1c[nH]cn1)NC(=O)[C@H](C)NC(=O)[C@@H](NC(=O)[C@H](CC(N)=O)NC(=O)[C@H](Cc1c[nH]cn1)NC(=O)[C@H](CC(C)C)NC(=O)[C@H](C)NC(=O)CNC(=O)[C@H](Cc1ccc(O)cc1)NC(=O)[C@@H](N)Cc1ccc(O)cc1)[C@@H](C)O)C(=O)N[C@H](C(=O)N[C@@H](CC(C)C)C(=O)NCC(=O)N[C@@H](CCCNC(=N)N)C(N)=O)C(C)C [L12] (H-YYGALHNTAHIVLGR-NH2)
2.10

----------
Overview of reported MIC S. pyogenes across a group of molecules:
System: Streptococcus pyogenes
Format: cell-based
Details: 2 h, pH 7.6
Residues, ends and D or L forms follow the SMILES beside them.
Answer format reminder: number followed by unit.

CC[C@H](C)[C@H](NC(=O)[C@H](CCCCN)NC(=O)[C@H](Cc1c[nH]cn1)NC(=O)[C@H](CC(C)C)NC(=O)[C@H](CC(C)C)NC(=O)[C@H](Cc1ccccc1)NC(=O)[C@H](CC(N)=O)NC(=O)[C@@H](N)C(C)C)C(=O)N[C@@H](Cc1ccc(O)cc1)C(=O)NCC(=O)N[C@@H](CC(N)=O)C(=O)N[C@H](C(=O)N[C@@H](CCCNC(=N)N)C(=O)N[C@@H](Cc1ccc(O)cc1)C(=O)N[C@@H](CO)C(N)=O)[C@@H](C)CC [L1] (H-VNFLLHKIYGNIRYS-NH2) | 62.5 µg/mL

Shifting focus to the molecule that follows.
Find the measured MIC S. pyogenes of CC[C@H](C)[C@H](NC(=O)[C@H](Cc1c[nH]cn1)NC(=O)[C@H](C)NC(=O)[C@@H](NC(=O)[C@H](CC(N)=O)NC(=O)[C@H](Cc1c[nH]cn1)NC(=O)[C@H](CC(C)C)NC(=O)[C@H](C)NC(=O)CNC(=O)[C@H](Cc1ccc(O)cc1)NC(=O)[C@@H](N)Cc1ccc(O)cc1)[C@@H](C)O)C(=O)N[C@H](C(=O)N[C@@H](CC(C)C)C(=O)NCC(=O)N[C@@H](CCCNC(=N)N)C(N)=O)C(C)C [L12] (H-YYGALHNTAHIVLGR-NH2) with Streptococcus pyogenes as test system.
125 µg/mL

----------
Test system: seven bacteria (V. parahaemolyticus, V. fluvialis, V. alginolyticus, E. coli, A. hydrophila, S. aureus, S. pyogenes)
Test: MIC summarised over the seven bacteria (GB, average MIC, fold change)
Assay type: cell-based
Details: summary of the MICs over the seven bacteria; footnote b not given
Residues, ends and D or L forms follow the SMILES beside them.
Overview of reported GB across a group of molecules:
Express it in µg/mL; write the number only.

// below: answered molecules
CC[C@H](C)[C@H](NC(=O)[C@H](CCCNC(=N)N)NC(=O)[C@H](CO)NC(=O)[C@H](CCC(=O)O)NC(=O)[C@@H](NC(=O)[C@@H](NC(=O)[C@H](CC(C)C)NC(=O)[C@H](CC(C)C)NC(=O)[C@H](CC(=O)O)NC(=O)[C@H](CCCNC(=N)N)NC(=O)[C@@H](NC(=O)[C@H](CCCNC(=N)N)NC(=O)[C@H](C)NC(=O)[C@@H](NC(=O)CN)C(C)C)[C@@H](C)CC)[C@@H](C)CC)[C@@H](C)CC)C(N)=O [L8] (H-GVARIRDLLIIESRI-NH2; N-terminus and C-terminus assumed) | 185.8
NC[C@H]1O[C@H](O[C@H]2[C@H](O)[C@@H](O[C@H]3O[C@H](CO)[C@@H](O)[C@H](N)[C@H]3O)[C@H](N)C[C@@H]2N)[C@H](O)[C@@H](O)[C@@H]1O [Kanamycin, reference compound] | 1.1
CC[C@H](C)[C@H](NC(=O)[C@H](C)NC(=O)[C@H](CC(=O)O)NC(=O)[C@H](CCCNC(=N)N)NC(=O)[C@@H](NC(=O)[C@@H](N)CCCNC(=N)N)[C@@H](C)CC)C(=O)N[C@@H](C)C(=O)N[C@@H](Cc1c[nH]cn1)C(=O)NCC(=O)N[C@@H](Cc1ccc(O)cc1)C(=O)N[C@H](C(=O)N[C@H](C(=O)N[C@@H](CC(=O)O)C(=O)N[C@@H](CCCCN)C(=O)N[C@H](C(N)=O)C(C)C)C(C)C)[C@@H](C)CC [L10] (H-RIRDAIAHGYIVDKV-NH2) | 113.3

Shifting focus to the molecule that follows.
Name the recorded GB of the molecule listed here: CC(C)C[C@H](NC(=O)[C@H](CCCCN)NC(=O)[C@H](CCC(N)=O)NC(=O)[C@@H](NC(=O)[C@H](C)NC(=O)[C@H](CCC(=O)O)NC(=O)CNC(=O)CN)C(C)C)C(=O)N[C@H](C(=O)N[C@@H](CCCNC(=N)N)C(=O)N[C@@H](CCC(=O)O)C(=O)N[C@H](C(=O)N[C@@H](CCCCN)C(=O)N[C@@H](CC(=O)O)C(=O)NCC(N)=O)C(C)C)C(C)C [L2] (H-GGEAVQKLVREVKDG-NH2; N-terminus and C-terminus assumed)
205.1
